Values compiled from patent US10314804B2.

METHOD_DESCRIPTION: bioavailability of bixin and norbixin, plasma analysis
Format: in vivo, C57Bl/6 mice
CONDITION_DESCRIPTION: C57Bl/6, mouse, po; Norbixin ingestion (50 mg/kg), plasma; read-out: Tmax
ASSAY_METRIC: Tmax (min)
Numbers only, in min.

Lookup: Requested field: Tmax. Item: CC(=C/C=C/C(C)=C/C=C/C=C(C)/C=C/C=C(C)/C=C/C(=O)O)/C=C/C(=O)O
Found: 30

---

METHOD_DESCRIPTION: bioavailability of bixin and norbixin, plasma analysis
Assay type: in vivo, C57Bl/6 mice
CONDITION_DESCRIPTION: C57Bl/6, mouse, plasma, po, 50 mg/kg, Norbixin ingestion (50 mg/kg)
Method: Studies of the bioavailability of bixin and of norbixin were carried out in C57Bl/6 mice. The compounds were administered orally (50 mg/kg). Blood samples were taken after 0.25, 0.5, 1, 3, 6, 8 and 24 h and analyzed by HPLC-DAD (UV 460 nm)-MS/MS.
ASSAY_METRIC: Cmax (ng/mL)
Answers are plain numbers, in ng/mL.

Lookup: What measured Cmax goes with CC(=C/C=C/C(C)=C/C=C/C=C(C)/C=C/C=C(C)/C=C/C(=O)O)/C=C/C(=O)O ?
Found: 12400
